Reported values of EC50 for individual entries
molecular target: human GPR120 (Homo sapiens); assay: Human GPR120 IP1 Assay (inositol phosphate turnover, CisBio IP-One kit); conditions: IP1 accumulation in CHO-K1 cells stably expressing the short form of human GPR120; 60 min compound incubation; 4-parameter fit; read-out: hGPR120 EC50
API: value field is a number in µM; no unit string.

Before answering, review these 5 worked examples.
compound=N#Cc1c(Cl)cc(OC2CCC2)cc1N1CCc2c(ccc(CCC(=O)O)c2F)C1 endpoint_unit=µM readout_number=0.016
compound=O=C(O)CCc1ccc2c(c1)CCN(c1cc(OC(F)(F)F)cc(Cl)c1Cl)C2 endpoint_unit=µM readout_number=0.062
compound="Cc1ccc(-n2nc(C)c(C#N)c2N2CCc3cc(CCCCC(=O)O)ccc3C2)cc1 [Example 134]" endpoint_unit=µM readout_number=0.041
compound="O=C(O)C1CC1c1ccc2c(c1)CCN(c1cc(OC(F)(F)F)ccc1F)C2 (centres unmarked)" endpoint_unit=µM readout_number=0.118
compound="CC(Cc1ccc2c(c1F)CCN(c1cc(OC(F)(F)F)cc(Cl)c1F)C2)C(=O)O (single isomer, unassigned) [Example 69]" endpoint_unit=µM readout_number=0.231

Asked: I have this compound here, `N#Cc1c(F)cc(OC2CCC2)cc1N1CCc2c(ccc(CCC(=O)O)c2F)C1` , and I need its recorded EC50.
Given back: 0.017

Asked: Moving on to the next compound: CC1c2ccc(CCC(=O)O)cc2CCN1c1cc(OC2CCC2)cc(F)c1F (centres unmarked) [Example 32]
Given back: 0.233

Asked: Moving on to the next compound: `O=C(O)CCc1cc2c(cc1F)CN(c1cc(OC(F)(F)F)ccc1F)CC2`
Given back: 0.134

====

target: human GPR120 (Homo sapiens, UniProt Q5NUL3); experiment: Human GPR120 IP1 Assay (inositol phosphate turnover, CisBio IP-One kit); details: IP1 accumulation in CHO-K1 cells stably expressing the short form of human GPR120; 60 min compound incubation; 4-parameter fit; read-out: hGPR120 EC50
Sequence (Q5NUL3 whole entry): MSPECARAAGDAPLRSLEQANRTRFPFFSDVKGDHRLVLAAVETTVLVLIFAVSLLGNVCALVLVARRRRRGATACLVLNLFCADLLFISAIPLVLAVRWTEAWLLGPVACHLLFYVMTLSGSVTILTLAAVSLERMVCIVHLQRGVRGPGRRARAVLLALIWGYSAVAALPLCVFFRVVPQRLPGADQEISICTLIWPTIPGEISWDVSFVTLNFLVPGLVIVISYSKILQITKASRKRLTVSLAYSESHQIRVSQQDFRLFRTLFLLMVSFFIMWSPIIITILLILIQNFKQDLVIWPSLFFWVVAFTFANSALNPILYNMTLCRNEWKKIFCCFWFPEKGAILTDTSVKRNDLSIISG
measured_property: pEC50
pEC50 (log units): -log10 of the concentration in mol/L.

compound=CO[C@H]1C[C@H](Oc2cc(C#N)c(F)c(N3CCc4cc(CCC(=O)O)ccc4C3)c2)C1 readout_number=6.74
compound=Cc1nc(OC2CCC2)nc(N2CCc3c(ccc(CCC(=O)O)c3F)C2)c1C#N readout_number=7.16
compound=O=C(O)CCc1ccc2c(c1F)CCN(c1cc(OC(F)(F)F)ccc1F)C2 readout_number=5.51
compound=CO[C@H]1C[C@H](Oc2cc(F)c(F)c(N3CCc4cc([C@H]5C[C@@H]5C(=O)O)ccc4C3)c2)C1 readout_number=6.60
compound=O=C(O)CCc1ccc2c(c1)CCN(c1cncc(OC3CCC3)n1)C2 readout_number=6.24
compound="Cc1ccc(-n2nc(C)c(C#N)c2N2CCc3cc(CCCCC(=O)O)ccc3C2)cc1 [Example 127]" readout_number=7.46

Asked: I have this compound here, `CO[C@H]1C[C@H](Oc2cc(F)c(F)c(N3CCc4cc(CCC(=O)O)ccc4C3)c2)C1` , and I need its recorded pEC50.
Given back: 7.54

Asked: Moving on to the next compound: `COc1cc(F)c(N2CCc3cc(CCC(=O)O)ccc3C2)cc1Oc1ncc(C)s1`
Given back: 7.29

Asked: Moving on to the next compound: `O=C(O)CCc1ccc2c(c1)CCN(c1cc(Oc3ccc(F)cn3)cc(C(F)F)c1F)C2`
Given back: 6.51
